// values below are reported koff
- assayed target: T1, activin A (UniProt P08476 311-426)
- T1 construct: also called ActA
- T1 sequence (looked up): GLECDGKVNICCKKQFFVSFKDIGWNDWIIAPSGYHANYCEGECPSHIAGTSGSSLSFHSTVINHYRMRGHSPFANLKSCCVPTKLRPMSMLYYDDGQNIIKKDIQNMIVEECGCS
- protocol description: SPR (Biacore); receptor-Fc captured by anti-hFc antibody, ligand injected
quantity name: koff (s⁻¹)

ActRIIB(R64K 20-134)-hFc (Fc fusion) GRGEAETRECIYYNANWELERTNQSGLERCEGEQDKRLHCYASWKNSSGTIELVKKGCWLDDFNCYDRQECVATEENPQVYFCCCEGNFCNERFTHLPEAGGPEVTYEPPPTAPTGGGTHTCPPCPAPELLGGPSVFLFPPKPKDTLMISRTPEVTCVVVDVSHEDPEVKFNWYVDGVEVHNAKTKPREEQYNSTYRVVSVLTVLHQDWLNGKEYKCKVSNKALPVPIEKTISKAKGQPREPQVYTLPPSREEMTKNQVSLTCLVKGFYPSDIAVEWESNGQPENNYKTTPPVLDSDGSFFLYSKLTVDKSRWQQGNVFSCSVMHEALHNHYTQKSLSLSPGK: 0.000325
ActRIIB(R64K 20-129)-hFc (Fc fusion) GRGEAETRECIYYNANWELERTNQSGLERCEGEQDKRLHCYASWKNSSGTIELVKKGCWLDDFNCYDRQECVATEENPQVYFCCCEGNFCNERFTHLPEAGGPEVTYEPPGGGTHTCPPCPAPELLGGPSVFLFPPKPKDTLMISRTPEVTCVVVDVSHEDPEVKFNWYVDGVEVHNAKTKPREEQYNSTYRVVSVLTVLHQDWLNGKEYKCKVSNKALPVPIEKTISKAKGQPREPQVYTLPPSREEMTKNQVSLTCLVKGFYPSDIAVEWESNGQPENNYKTTPPVLDSDGSFFLYSKLTVDKSRWQQGNVFSCSVMHEALHNHYTQKSLSLSPGK: 0.000628
ActRIIB(A24N 20-134)-hFc (Fc fusion) GRGENETRECIYYNANWELERTNQSGLERCEGEQDKRLHCYASWRNSSGTIELVKKGCWLDDFNCYDRQECVATEENPQVYFCCCEGNFCNERFTHLPEAGGPEVTYEPPPTAPTGGGTHTCPPCPAPELLGGPSVFLFPPKPKDTLMISRTPEVTCVVVDVSHEDPEVKFNWYVDGVEVHNAKTKPREEQYNSTYRVVSVLTVLHQDWLNGKEYKCKVSNKALPVPIEKTISKAKGQPREPQVYTLPPSREEMTKNQVSLTCLVKGFYPSDIAVEWESNGQPENNYKTTPPVLDSDGSFFLYSKLTVDKSRWQQGNVFSCSVMHEALHNHYTQKSLSLSPGK: 0.000346

The origin of these recorded values is patent US20230129812A1.
